assayNotes: APR_HepG2_P-H2AX_24hr: Apredica 24-hour HepG2 Assay for H2AX Phosphorylation (AID 2282920)
conditionInfo: high-content imaging, actives raise or lower the signal
Activity calls are given as the source filed them. Rule for the calls: active = hit-call score of the fitted dose curve at least 0.9, where 1 is the maximum; inactive = score below 0.9.
The categories you may choose from are 1 for active, -1 for inactive

# example entries with known answers
| substanceSmiles | className |
| --- | --- |
| OCCOCCOCCO | -1 |
| c1ccc2c(c1)-c1cccc3c1c-2cc1ccccc13 | -1 |
| O=C(O)c1cccc(C(=O)O)c1 | -1 |
| OC(CCl)CCl | -1 |
| Cn1c(=O)c2[nH]cnc2n(C)c1=O | -1 |

q: # fetch the recorded call for C=CCc1cc(S(=O)(=O)c2ccc(O)c(CC=C)c2)ccc1O here
a: 1

q: # fetch the recorded call for O=C(O)c1cccc(C[C@@H]2COc3ccc(OCc4nc5cc(F)ccc5s4)cc3[C@@H]2O)c1 here
a: 1
